As shown below, each of these molecules has a reported Metabolic stability in human liver microsomes (% remaining at 60 min) value.
assay: Metabolic Stability in Human Liver Microsomes; format: in vitro ADME; details: human, microsomes, 1 h
Kindly answer with a numeric value in %, unit omitted.

Examples with their reported Metabolic stability in human liver microsomes (% remaining at 60 min) follow.
CC1CC(C2[C@H]3CN(C(=O)c4cc(C(C)C)[nH]n4)C[C@@H]23)=NO1 (stereo partly drawn)	86
C[C@@H](c1nccs1)n1cnc(C(=O)N2C[C@@H]3[C@H](C2)[C@H]3C2=NOC(C)(C)C2)c1	97
CC(C)NC(=O)[C@H]1[C@@H]2CN(C(=O)c3cc(C(C)C)[nH]n3)C[C@@H]21	97

Measured Metabolic stability in human liver microsomes (% remaining at 60 min) of `COc1ccc2nnc([C@H]3[C@@H]4CN(C(=O)c5cc(C(C)C)[nH]n5)C[C@@H]43)n2c1` : 84

###

experiment: Brain Concentration in Mice; type: in vivo; conditions: mouse, po; mice (C57BL/6), orally administered, 1 mg/kg, brain 2 h after administration; read-out: Unbound-Brain Concentration at 2 h at 1 mg/kg
MEASUREMENT KIND: concentration at 2 h (ng/g)
Entry rule: numbers only, all in ng/g.

Worked cases, answers included:
C[C@]1(C2=NOC3(CC3)C2)[C@@H]2CN(C(=O)c3cn(C4CC4)cn3)C[C@@H]21	76.7
CC(C)n1cnc(C(=O)N2C[C@@H]3[C@H](C2)[C@@]3(C)C2=NOC(C)(C)C2)c1	21.9

Please fill in: concentration at 2 h reported for `CC[C@H](C)n1cnc(C(=O)N2C[C@@H]3[C@H](C2)[C@H]3C2=NOC(C)(C)C2)c1` = 10.8

Note to self: concentration at 2 h recorded for `CC1(C)CC([C@H]2[C@@H]3CN(C(=O)c4cn(C5(C)CC5)cn4)C[C@@H]32)=NO1` was 62.1

The compound listed as `CC1(C)CC([C@@]2(C)[C@@H]3CN(C(=O)c4cn(C5CC5)cn4)C[C@@H]32)=NO1` shows concentration at 2 h equal to 57.4

# compound `O=C(c1cn(C2CC2)cn1)N1C[C@@H]2[C@H](C1)[C@H]2C1=NOC2(CC2)C1` ; its concentration at 2 h = 55.3

###

Below are compounds with their IC50 as measured on KDM5A (Homo sapiens (Human), UniProt P29375).
Sequence (P29375 whole entry): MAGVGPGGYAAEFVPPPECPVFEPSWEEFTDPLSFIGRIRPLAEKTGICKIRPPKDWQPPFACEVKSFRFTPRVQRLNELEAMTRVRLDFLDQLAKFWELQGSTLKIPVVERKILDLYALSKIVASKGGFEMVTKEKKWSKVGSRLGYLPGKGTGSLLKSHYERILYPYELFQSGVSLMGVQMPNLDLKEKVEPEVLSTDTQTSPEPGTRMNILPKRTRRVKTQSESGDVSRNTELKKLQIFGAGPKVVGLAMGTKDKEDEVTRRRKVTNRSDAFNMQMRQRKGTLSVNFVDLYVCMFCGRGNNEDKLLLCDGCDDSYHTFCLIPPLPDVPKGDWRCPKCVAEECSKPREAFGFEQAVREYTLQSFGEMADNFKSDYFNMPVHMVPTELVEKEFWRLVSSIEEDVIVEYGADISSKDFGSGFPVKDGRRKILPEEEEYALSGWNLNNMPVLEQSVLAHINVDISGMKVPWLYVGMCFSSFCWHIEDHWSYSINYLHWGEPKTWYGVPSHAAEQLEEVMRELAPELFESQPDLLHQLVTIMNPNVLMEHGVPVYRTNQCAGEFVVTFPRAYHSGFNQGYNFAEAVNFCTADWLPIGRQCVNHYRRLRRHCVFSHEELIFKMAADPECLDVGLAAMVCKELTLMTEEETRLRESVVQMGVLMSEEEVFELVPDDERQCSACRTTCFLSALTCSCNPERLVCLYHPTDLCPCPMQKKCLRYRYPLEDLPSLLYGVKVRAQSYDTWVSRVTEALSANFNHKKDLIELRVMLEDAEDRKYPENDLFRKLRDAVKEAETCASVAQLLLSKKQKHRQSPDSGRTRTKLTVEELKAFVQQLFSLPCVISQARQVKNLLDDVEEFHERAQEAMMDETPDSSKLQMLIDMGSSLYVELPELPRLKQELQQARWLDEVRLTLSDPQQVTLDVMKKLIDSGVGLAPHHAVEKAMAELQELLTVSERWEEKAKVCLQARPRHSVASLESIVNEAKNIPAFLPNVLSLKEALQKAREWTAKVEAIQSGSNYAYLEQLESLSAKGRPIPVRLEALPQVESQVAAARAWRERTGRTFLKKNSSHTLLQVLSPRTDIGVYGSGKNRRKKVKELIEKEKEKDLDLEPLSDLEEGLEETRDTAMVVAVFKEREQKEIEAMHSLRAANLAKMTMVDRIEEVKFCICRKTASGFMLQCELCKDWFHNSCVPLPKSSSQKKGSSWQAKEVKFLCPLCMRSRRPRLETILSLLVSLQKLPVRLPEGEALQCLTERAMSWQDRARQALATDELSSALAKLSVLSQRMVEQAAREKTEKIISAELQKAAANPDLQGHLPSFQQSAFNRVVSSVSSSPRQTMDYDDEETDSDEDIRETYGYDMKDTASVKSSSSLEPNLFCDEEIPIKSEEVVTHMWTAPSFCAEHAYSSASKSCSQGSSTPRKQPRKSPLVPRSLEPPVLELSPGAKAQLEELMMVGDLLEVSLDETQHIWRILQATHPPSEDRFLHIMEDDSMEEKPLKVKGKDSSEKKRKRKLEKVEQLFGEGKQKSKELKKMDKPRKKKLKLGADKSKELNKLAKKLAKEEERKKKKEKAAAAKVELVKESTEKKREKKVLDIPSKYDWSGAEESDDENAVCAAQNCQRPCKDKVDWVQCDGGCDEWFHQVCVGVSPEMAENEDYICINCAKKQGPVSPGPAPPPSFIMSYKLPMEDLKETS
Numbers only here, please. The scale is nM.

Before answering, review these 3 worked examples.
C[C@@H](c1ccc(C#N)cc1)n1cnc(C(=O)N2C[C@@H]3[C@H](C2)[C@H]3C2=NOC(C)(C)C2)c1 [Example 24]	200
COc1ccc2nnc([C@H]3[C@@H]4CN(C(=O)c5cc(C(C)C)[nH]n5)C[C@@H]43)n2c1 [Example 131]	10
CC(C)n1cnc(C(=O)N2C[C@@H]3[C@H](C2)[C@H]3C(=O)NC(C)(C)C)c1 [Example 65]	20

Shift focus to the following entry.
Just so you know, measured IC50 for CC(C)c1cc(C(=O)N2C[C@@H]3[C@H](C2)[C@H]3C2=NOC(C)(C)C2)n[nH]1 [Example 88] came out at 70

###

System: KDM5A (Homo sapiens (Human), UniProt P29375) | Read-out: pIC50
pIC50 is a log-scale quantity: -log10 of the concentration expressed in molar.

Check out these entries, answers already filled in.
CC(C)c1cc(C(=O)N2C[C@@H]3[C@H](C2)[C@H]3C(=O)N(C)C2(C)CC2)n[nH]1 [Example 138]	6.10
CC(C)n1cnc(C(=O)N2C[C@@H]3[C@H](C2)[C@H]3C(=O)N(C)C2(C#N)CC2)c1 [Example 69]	6.70
CC(C)n1cnc(C(=O)N2C[C@@H]3[C@H](C2)[C@H]3C2=NOC(C)(C)N2C)c1 [Example 59]	7.70

Tested system KDM5A (Homo sapiens (Human), UniProt P29375); pIC50 recorded for Cc1onc([C@H]2[C@@H]3CN(C(=O)c4cc(C(C)C)[nH]n4)C[C@@H]32)c1-c1ccccn1 [Example 106] was 7.40

Simply: CC(C)c1cc(C(=O)N2C[C@@H]3[C@H](C2)[C@H]3C2=NO[C@H]3C[C@@H]23)n[nH]1 [Example 96] , KDM5A (Homo sapiens (Human), UniProt P29375), pIC50 = 7.52

KDM5A (Homo sapiens (Human), UniProt P29375) assay, compound CC(C)c1cc(C(=O)N2C[C@@H]3[C@H](C2)[C@@]3(C)C(=O)NC(C)(C)C)n[nH]1 [Example 145] , recorded pIC50 = 7.05

The measured pIC50 that CC(C)n1cnc(C(=O)N2C[C@@H]3[C@H](C2)[C@@]3(C)C2=NOC3(CC3)C2)c1 [Example 84] showed for KDM5A (Homo sapiens (Human), UniProt P29375) is 7.52

###

Measurement record for KDM5A (Homo sapiens (Human)); quantity recorded: IC50.

Example entries and their recorded answers appear below.
CCN1C([C@H]2[C@@H]3CN(C(=O)c4cc(C(C)C)[nH]n4)C[C@@H]32)=NOC1(C)C [Example 110]	50 nM
CC(C)n1cnc(C(=O)N2C[C@@H]3[C@H](C2)[C@H]3c2nnn[nH]2)c1 [Example 63]	10 nM

Attention now shifts to the item below.
// assay KDM5A (Homo sapiens (Human)), entry C[C@@H](c1ccccc1C#N)n1cnc(C(=O)N2C[C@@H]3[C@H](C2)[C@H]3C2=NOC(C)(C)C2)c1 [Example 22] , IC50 value = 400 nM

###

experiment: Metabolic Stability in Human Liver Microsomes; assay type: in vitro ADME; conditions: 0.5 mg/mL liver microsomes, 1.0 μM test compound, 1.0 mM NADPH, 37° C., 60 min
MEASUREMENT KIND: Metabolic stability in human liver microsomes (% remaining at 60 min) (%)
The reply should contain only the number, in %.

Reference set (3 entries):
CC(C)n1cnc(C(=O)N2C[C@@H]3C(C4=NOC(C)(C(F)F)C4)[C@@H]3C2)c1 (stereo partly shown) [Example 40]	103
CC(C)n1cnc(C(=O)N2C[C@@H]3[C@H](C2)[C@H]3C(=O)N(C)C2(C#N)CC2)c1 [Example 69]	89
CC(C)n1cnc(C(=O)N2C[C@@H]3[C@H](C2)[C@H]3C(=O)N(C)C(C)(C)C)c1 [Example 66]	89

Now, please, on to the next compound.
For reference, reported Metabolic stability in human liver microsomes (% remaining at 60 min) for CC(c1cc(C(=O)N2C[C@@H]3C(C4=NOC(C)(C)C4)[C@@H]3C2)n[nH]1)C1CC1 (stereo partly shown) [Example 90] stands at 100

###

target: UniProt P29375
Consider the cut-off 0.02 µM. If the recorded IC50 is strictly smaller, the label is Y; if not, the label is N.

Known results for molecules:
Cc1cc([C@H]2[C@@H]3CN(C(=O)c4cn(C(C)C)cn4)C[C@@H]32)no1 [Example 56]	N
Cc1cc([C@H]2[C@@H]3CN(C(=O)c4cc(C(C)C)[nH]n4)C[C@@H]32)no1 [Example 103]	N
CC(C)n1cnc(C(=O)N2C[C@@H]3[C@H](C2)[C@H]3c2nnn3ccccc23)c1 [Example 62]	Y
CC(C)c1cc(C(=O)N2C[C@@H]3[C@H](C2)[C@H]3c2nnn3ccccc23)n[nH]1 [Example 132]	N

Q) Decide: IC50 of CC(C)n1cnc(C(=O)N2C[C@@H]3[C@H](C2)[C@H]3C(=O)C2CC2)c1 [Example 75] strictly below 0.02 µM?
A) N

Q) Check if IC50 falls below 0.02 µM for CC1(C)CC([C@H]2[C@@H]3CN(C(=O)c4cn(C5(C)CC5)cn4)C[C@@H]32)=NO1 [Example 33] .
A) N

Q) Regarding CCN1C([C@H]2[C@@H]3CN(C(=O)c4cn(C(C)C)cn4)C[C@@H]32)=NOC1(C)C [Example 60] , kindly confirm whether its IC50 is beneath 0.02 µM.
A) N

Q) Threshold test, IC50 < 0.02 µM: CC(C)c1cc(C(=O)N2C[C@@H]3[C@H](C2)[C@H]3c2nnn[nH]2)n[nH]1 [Example 134]
A) Y

Q) Record CC(c1cc(C(=O)N2C[C@@H]3C(C4=NOC(C)(C)C4)[C@@H]3C2)n[nH]1)C1CC1 (stereo partly shown) [Example 90] : is its IC50 strictly below 0.02 µM?
A) N

Q) Please state whether IC50 is below 0.02 µM for CC(C)n1cnc(C(=O)N2C[C@@H]3[C@H](C2)[C@@]3(C)C(=O)NC(C)(C)C)c1 [Example 87]
A) N

Q) Input Cc1c([C@H]2[C@@H]3CN(C(=O)c4cc(C(C)C)[nH]n4)C[C@@H]32)noc1C(F)F [Example 104] ; condition: IC50 strictly below 0.02 µM. Does it hold?
A) N

Q) Is it true that IC50 reported for CC1CC(C2[C@H]3CN(C(=O)c4cc(C(C)C)[nH]n4)C[C@@H]23)=NO1 (stereo partly shown) [Example 93] is less than 0.02 µM?
A) N
